Rank (after) values, listed per item
- TARGET DESC: MAL^TIR (Homo sapiens)
- Construct: MAL (residues 79–221); 6xHis; made in house; host or cells: E. coli BL21 (DE3)
- Sequence (P58753 79-221): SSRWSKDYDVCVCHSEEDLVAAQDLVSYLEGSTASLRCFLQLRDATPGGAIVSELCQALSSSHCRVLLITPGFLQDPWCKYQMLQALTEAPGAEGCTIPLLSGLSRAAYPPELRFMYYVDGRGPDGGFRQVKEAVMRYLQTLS
- ASSAY NAME: T‐Surf phage library (P8 and P3) selection against MAL^TIR, four rounds, NGS read counts
- Type: binding
- CONDITION DESCRIPTION: P3_MAL: rank by count after grouping
- Method: T‐Surf libraries were screened against the immobilized TIR domains of two major human TLR adaptor proteins, MAL^TIR and MyD88^TIR, allowing cross‐species selection of TIR‐binding motifs with 190 946 TIR‐derived peptides in a single binding assay (Scheme 1). Enriched phage pools from the fourth round of selection were analyzed using NGS after barcoding the peptide‐coding regions of the phage pools. […]

{"SEQ": "NGHESEIIKEIWIPL", "TARGET DESC": "MAL^TIR (Homo sapiens)", "Rank (after)": 429}
{"SEQ": "RLLKWKEALHQFHSW", "TARGET DESC": "MAL^TIR (Homo sapiens)", "Rank (after)": 136}
{"SEQ": "LKWGDPYFWSKLRFA", "TARGET DESC": "MAL^TIR (Homo sapiens)", "Rank (after)": 474}
{"SEQ": "RLQKWKEALHQIHSRV", "TARGET DESC": "MAL^TIR (Homo sapiens)", "Rank (after)": 189}
{"SEQ": "KEVEGWRQALEKAGKL", "TARGET DESC": "MAL^TIR (Homo sapiens)", "Rank (after)": 118}
{"SEQ": "NQWRNSLTAAANLRGW", "TARGET DESC": "MAL^TIR (Homo sapiens)", "Rank (after)": 173}
{"SEQ": "MSHLYQGLQHRGIFTF", "TARGET DESC": "MAL^TIR (Homo sapiens)", "Rank (after)": 396}
{"SEQ": "SLCKNLVTNLIEEFNR", "TARGET DESC": "MAL^TIR (Homo sapiens)", "Rank (after)": 456}
{"SEQ": "PNLRTKVLDYLLRTKT", "TARGET DESC": "MAL^TIR (Homo sapiens)", "Rank (after)": 406}
{"SEQ": "DWFLSKLNQHLLKREK", "TARGET DESC": "MAL^TIR (Homo sapiens)", "Rank (after)": 424}

====

- TARGET DESC: MyD88^TIR (Homo sapiens)
- Construct: MyD88 (residues 148–296); 6xHis; made in house; host or cells: E. coli BL21 (DE3)
- Sequence (Q99836 148-296): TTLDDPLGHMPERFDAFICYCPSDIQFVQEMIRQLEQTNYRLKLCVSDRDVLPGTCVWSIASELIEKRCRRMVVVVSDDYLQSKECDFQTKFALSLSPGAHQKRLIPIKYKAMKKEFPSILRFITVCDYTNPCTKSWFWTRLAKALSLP
- ASSAY NAME: T‐Surf phage library (P8 and P3) selection against MyD88^TIR, four rounds, NGS read counts
- Type: binding
- CONDITION DESCRIPTION: P3 library, 4R selection against MyD88, rank before grouping
P3_MyD88 Rank (before) values, listed per item

{"SEQ": "LKVESCVRRWKKRAN", "P3_MyD88 Rank (before)": 2519}
{"SEQ": "GFREGLWRLLELSKK", "P3_MyD88 Rank (before)": 1819}
{"SEQ": "DHHLDLPRGKALTPEILG", "P3_MyD88 Rank (before)": 2012}
{"SEQ": "NELLHVWSSKANSLEG", "P3_MyD88 Rank (before)": 3394}
{"SEQ": "SLRRNLVSNLIEEFIR", "P3_MyD88 Rank (before)": 3076}
{"SEQ": "LVSHEISKKVKIFATI", "P3_MyD88 Rank (before)": 2265}
{"SEQ": "SSFRDDLWRLLELSKK", "P3_MyD88 Rank (before)": 3135}

====

- TARGET DESC: MAL^TIR (Homo sapiens)
- Construct: MAL (residues 79–221); 6xHis; made in house; host or cells: E. coli BL21 (DE3)
- ASSAY NAME: T‐Surf phage library (P8 and P3) selection against MAL^TIR, four rounds, NGS read counts
- Type: binding
- CONDITION DESCRIPTION: P3 library, selection against MAL TIR; rank by count after grouping
P3_MAL Rank (after) values, listed per item

{"SEQ": "KEVEGWRDALPHRYEP", "P3_MAL Rank (after)": 191}
{"SEQ": "YAFTGHLQRYLVHRGV", "P3_MAL Rank (after)": 251}
{"SEQ": "NNLFNALVSKNIRTFM", "P3_MAL Rank (after)": 258}
{"SEQ": "NQWRNALTAPANLSGR", "P3_MAL Rank (after)": 228}
{"SEQ": "YAFTGHLNRSLVQRGV", "P3_MAL Rank (after)": 199}
{"SEQ": "YAFTGHLHRYHLPAPQH", "P3_MAL Rank (after)": 277}
{"SEQ": "PEKDNGGANAFSNNIV", "P3_MAL Rank (after)": 200}
{"SEQ": "NHSRNALTAAANLSGW", "P3_MAL Rank (after)": 263}
{"SEQ": "ESILNQLRRSSESIAK", "P3_MAL Rank (after)": 211}
{"SEQ": "RGFLSHLRHHLQEQDH", "P3_MAL Rank (after)": 256}
{"SEQ": "YAFTGHLHRYLLQKM", "P3_MAL Rank (after)": 254}
{"SEQ": "LKAERWRQALEKAGKL", "P3_MAL Rank (after)": 226}
{"SEQ": "SSFTSHLYDRLQRSGI", "P3_MAL Rank (after)": 224}
{"SEQ": "NQWRNSLTAAANLSCW", "P3_MAL Rank (after)": 204}
{"SEQ": "KEVDGWRDALTQVASL", "P3_MAL Rank (after)": 196}
{"SEQ": "RGFLSHLRNHLQAKDP", "P3_MAL Rank (after)": 210}
{"SEQ": "NQWRNELNAAANLSGW", "P3_MAL Rank (after)": 255}
{"SEQ": "KIILDTAARIWGWRQA", "P3_MAL Rank (after)": 227}
{"SEQ": "SSFREGLWRLLELRQK", "P3_MAL Rank (after)": 276}
{"SEQ": "KWFWDKLIYPLSRNPQ", "P3_MAL Rank (after)": 239}
{"SEQ": "PNLRTKLLNYLMHTKT", "P3_MAL Rank (after)": 247}
{"SEQ": "RGFLSHLRHLLQAKDP", "P3_MAL Rank (after)": 193}
{"SEQ": "SICREGLWRLLELSKK", "P3_MAL Rank (after)": 284}
{"SEQ": "YAFTGHVDRYLVQRGV", "P3_MAL Rank (after)": 285}
{"SEQ": "YAFTGHLHCYLVQRGI", "P3_MAL Rank (after)": 194}
{"SEQ": "RLLNWKEARHQFHSWV", "P3_MAL Rank (after)": 243}
{"SEQ": "VLQKFISHLYDFLARK", "P3_MAL Rank (after)": 262}
{"SEQ": "LKVESCVRRWKKRAN", "P3_MAL Rank (after)": 213}
{"SEQ": "RLLNGKKRCISFIAG", "P3_MAL Rank (after)": 261}
{"SEQ": "YAFTGHPHRSLVQRGV", "P3_MAL Rank (after)": 271}
{"SEQ": "ESILNQLRRSSQSMR", "P3_MAL Rank (after)": 202}
{"SEQ": "NAFTGNLHRYLVQRGV", "P3_MAL Rank (after)": 287}
{"SEQ": "LKVERWRQALEKADKL", "P3_MAL Rank (after)": 215}
{"SEQ": "YAFTGHVHRYMVQRGV", "P3_MAL Rank (after)": 229}
{"SEQ": "SLFCNKLRYHLPAPQH", "P3_MAL Rank (after)": 214}
{"SEQ": "NQWRNALPAAANLRGW", "P3_MAL Rank (after)": 286}
{"SEQ": "KRFWERLRYMLPHSSL", "P3_MAL Rank (after)": 242}
{"SEQ": "LKWGDPYFWIKLRYTM", "P3_MAL Rank (after)": 233}
{"SEQ": "YAFTGHLHRYLVQPGG", "P3_MAL Rank (after)": 249}
{"SEQ": "FLNWPRNPKEHRHFWH", "P3_MAL Rank (after)": 241}
{"SEQ": "SSFRDGLWRLLELRKK", "P3_MAL Rank (after)": 269}
{"SEQ": "ESILNQLRRSSQSFAT", "P3_MAL Rank (after)": 260}
{"SEQ": "PNLRTKLLNYLIRTKT", "P3_MAL Rank (after)": 280}
{"SEQ": "NQWRNALTAAANLSDR", "P3_MAL Rank (after)": 282}
{"SEQ": "NQWRNALYEAANLS", "P3_MAL Rank (after)": 198}
{"SEQ": "PNLRTTVQNYLMRTKT", "P3_MAL Rank (after)": 216}
{"SEQ": "RLLKWKEALHQFIAG", "P3_MAL Rank (after)": 264}

====

P3_MAL Rank (before) values, listed per item
- TARGET DESC: MAL^TIR (Homo sapiens)
- Construct: MAL (residues 79–221); 6xHis; made in house; host or cells: E. coli BL21 (DE3)
- ASSAY NAME: T‐Surf phage library (P8 and P3) selection against MAL^TIR, four rounds, NGS read counts
- Type: binding
- CONDITION DESCRIPTION: P3 library, 4R selection against MAL, rank before grouping
MEASURE NAME: P3_MAL Rank (before)

{"SEQ": "PVAHEISKKMQLFATI", "RESULT": 2631}
{"SEQ": "PNLRTKVPDYLKRTKT", "RESULT": 2730}
{"SEQ": "SSFSEGLWRRLELSKK", "RESULT": 3202}
{"SEQ": "RNFAGQLAGLTLQNGDEGK", "RESULT": 2604}
